The reported numbers originate from the RNAGym collection of RNA variant scans (doi:10.1073/pnas.2313332121).

B1: TPR t1 (parent)
chain: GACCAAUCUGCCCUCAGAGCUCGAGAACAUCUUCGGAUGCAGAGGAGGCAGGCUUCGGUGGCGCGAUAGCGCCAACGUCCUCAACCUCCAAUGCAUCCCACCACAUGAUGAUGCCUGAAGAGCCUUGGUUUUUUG

- Variants of: B1
- assay-summary: polymerase ribozyme fitness, log enrichment relative to wild type (log ratio); higher = more active; in vitro selection for triplet polymerase activity
// reported polymerase ribozyme fitness (log ratio) for each item listed
Provide a numeric answer; units are not to be included.

Take a look at these entries with their results.
sequence_code="GACCAAUCUGCCCUCAGAGCUCGAGAAUAUCUUCGGAUGCAGAGGAUGCAGGCUUCGGUGGCGCGAUAGCGCCAACGUCCUCAACCUCCAAUGCAUUCCAUCGCAUGAUGAUGCCUCAAGAGCCUUGGUUUUUUG [C28U G47U C97U C101U A103G G117C]" assay_readout="polymerase ribozyme fitness (log ratio)" value_reported=-7.85
sequence_code="GACCAAUCUGCCCUCAGAGCUCGAGAACAUCUUCGGAUGCAGAGGAGGCAGGCUUCGGUGGCGCGAUAGCGCCAACGGCCUCAACCUCCAAUGGAUCCCACCACAUGAUGAUGCCUGAAGAGCCUUGGUUUUUUG [U78G C94G]" assay_readout="polymerase ribozyme fitness (log ratio)" value_reported=-0.85
sequence_code="GACCAAUCUGCCCUCAGAGCUCGAGAACAUCUUCGGAUGCAGAGGAGGCAGGCUUCGGUGGCCCGAUAGCGCCAACGUCCUCAACCUCUAAUGCAUCCCACUACAUGAUGCUGCUUGAAGAGCCUUGGUUUUUUG [G63C C89U C102U A111C C115U]" assay_readout="polymerase ribozyme fitness (log ratio)" value_reported=-6.78
sequence_code="GUCCAAUCUGCCCUCAGAGCUCGAGAACAUCUUCGGAUGCAGAGGAGGCAGGCUUCGGUAGCGCGAUAGCGCCAACGUUAUCAACCUCCAAUGCAUCCCACCACAUGAUGAUGCCUGAAGGGCCUUGGUUUUUUG [A2U G60A C79U C80A A121G]" assay_readout="polymerase ribozyme fitness (log ratio)" value_reported=-5.43
sequence_code="GACCAAUCUGCCCUCAGAGCUCGAGAACAUCUUCGGAUGCAGAGGAUGCAGGCUUCGGUGGCGCGAUAGCGCCAACGUCCUCAACCUCCAAUGGAUCCCACCACAUGAUGAUGCCUGAAGAGCCUUGGUUUUUUG [G47U C94G]" assay_readout="polymerase ribozyme fitness (log ratio)" value_reported=-3.51
sequence_code="GACCAAUCUGCCCUCAGAGCUCGAGAACAUCUUCGGAUGCAGAGGAGGCAGGCUUCGGUGGCGCGAUAGCGCCCACGUCCUCAACCUCCAAUGCAUCCCACCACAUGAUAAUGCCUGAAGAGCCUUGGUUUUUUG [A74C G110A]" assay_readout="polymerase ribozyme fitness (log ratio)" value_reported=-1.2

// field: polymerase ribozyme fitness (log ratio); key: GACCAAUCUGCCCUCAGAGCUCGAGAACAUCUUCGGCUGCAGAGGAGGCAGGCUUCGGUGGCGCGAUAGCGCCAACGUCCUCAACCUCCAAUGCAUCCCACCACAUGAUGAUGCCUGAAAAGCCUUGGUUUUUUG [A37C G120A] ; value = 1.02

Kindly note the recorded polymerase ribozyme fitness (log ratio) for GACCAAUAUGCCUUCAGAGCUCGAGAACAUCUUCGGAUGCAGAGGAGGCAGGCUGCGGUGGCGCGAUAACGCCAACGUCCUCAACCUCCAAUGCAUCCCACCACAUGAUGAUGCCUGAAGAGCCUUGGUUUUUUG [C8A C13U U55G G69A] , which is -2.21

Query GAUCAAUCUGCCCUCAGAGCUCGAGAACAUCUUCGGAUGCAGAGGAAGCAGGCUUCGGUGACGCGAUAGCGCCAACGUCCUCACCCUCCAAUGCAUCCCACCACAUGAUGAUGCCUGAAGAGCCUUGGUUUUUUG [C3U G47A G61A A84C] yields polymerase ribozyme fitness (log ratio) of -0.617

Sample GACCAAUCUGCCCUCAGAGCUCGAGAACAUCUUCGUAUGCAGAGGAGGCAGGCUUCGGUGGCGCGAUAGCGCCAACGUCCUAAACCUCCAAUGCAUCCCACCACAUGAUGAUUCCUGAAGAGCCUUGGUUUUUUG [G36U C82A G113U] ; polymerase ribozyme fitness (log ratio) observed: -3.08

polymerase ribozyme fitness (log ratio) reading for GACCAAUCUGCCCUCAGAGCUCGAGAACAUCUUCGGAUGCAGAGGAGGCAGGCUUCGGUGGCGCGAUAGUGCCAAAGUCCUCAACCUCCAAUGCAUCCCACCACAUGAUGAUGCCUGAAGUGCCGUGGUUUUUUG [C70U C76A A121U U125G] : -0.883

What the record says about GACCAAUCUGCCCUCAGAGCUCGAGAACAUCUUCGGAUGCAGAGGAGACAGGCUUCGGUGGCGUGAUAGCGCCAACGUCCUCAACCUCGAAUGCAUCCCACCACAUGAUGAUGUCUGAAGAGCCUGGGUUUUUUG [G48A C64U C89G C114U U126G] : polymerase ribozyme fitness (log ratio) is -6.43

polymerase ribozyme fitness (log ratio) reported for this variant GACCAAUCUGCCCUCAGAGCUCGAGAACAUCUUCGGAUGCAGAGGAGGGAGGCUUCGGUAGCGCGAUAGCGCCAUCGUCCUCAACCUCCAAUUCAUCCCACCACAUGAUGAUGCCUGAAGAGCCUUGGUUUUUUG [C49G G60A A75U G93U] : -3.65

The reported value for GACCAAUCUCCCCUCAGAGCUCGAGAACAUCUUCGGAUGCAGAGGAGGCAGGCUUCGGUGGCGCGAUAGCGCGAACGUCCUCAAGCUCCAAUGCAUCCCACCACAUGAUGAUGCCUGAAGAGCCUUGGUUUUUUG [G10C C73G C85G] in terms of polymerase ribozyme fitness (log ratio) is -2.53

Measured polymerase ribozyme fitness (log ratio) of GACCACUCUGCCCUCAGAGCUCGAGAACAUCUUCGGAUGCAGUGGAGGCAGGCUUCGGUGGCGCGAUAGCGCCAACGUCCUCUACCUCCAAUGCAUCUCACCAUAUGAUGAUGCCUGAAGAGCCUUGGUUUUUUG [A6C A43U A83U C98U C104U] : -2.52

// field: polymerase ribozyme fitness (log ratio); key: GACCAAUCUGCCCUCAGAGCUCGAGAACCUCUUCGUAUGCAGAGGAGGCAGGCUUCGGUGGCGCGAUACCGCCAACAUCCUCAACCUCCAAUGCAUUCCACCACUAGAUGAUGCCUGAAGAGCCUUGGUUUUUUG [A29C G36U G69C G77A C97U A105U U106A] ; value = -5.4

Looking up GACCAAUCGGCCCUCAGAGCUCGAGAACAUCUUCGGAUGCAGAGGAGGCAGGCUUCGGUGGCGCGAUAGCGCCAACGUCCUCAACAUCCAAUGCAUCCCACCACAUGAUGAUGACUGAAGAGCCUUGGUUUUUUG [U9G C86A C114A] , I see its polymerase ribozyme fitness (log ratio) listed as -0.649

Kindly note the recorded polymerase ribozyme fitness (log ratio) for GACCAAUCUGCCCUCAGAGCUCGAGAACAUCUUCGGAUGAAGAGGAGGCAGGCUUCGGUGGCGCGAUAGCGACAACGUCCUCAACCUCCAAUGCAUCCCACCACAUGAUGAUGCCUGAAGAGCCUUGGUUUUUUG [C40A C72A] , which is -0.912

Reported polymerase ribozyme fitness (log ratio) of GACCAAUCUGCCCUGAGAGCUCGAGAACAUCUUCGGAUGCAGAGGAGGCAGGCUUCGGCGGCGCGAUAGCGCCAACGUCCUCAACUUCCAAUGCAUCCCACCACAUGAUGAUGCCGGAAGAGCCUUGGUUUUUUG [C15G U59C C86U U116G] : -4.2

Form field polymerase ribozyme fitness (log ratio), entry GACCAAUCUGCCCUCAGAGCUCGAGAACAUCUUCGGAUGCGGAGGAGGCAGGCUUCGGUGGCUCGAUAGCGCCAACGUCCUCAACCUCCAAUGCAUCCCACCACAUGAUGAUGCCUCAAGAGCCUUGGUUUUUUG [A41G G63U G117C] : -6.01

Per the records, this variant ( GACCAAUCUGCCCUUAGAGCUCGAGAACAUCUGCGGAUGCAGAGGAGGCAGGCUUCGGUGUCGCGAUAGCGCCAACGUCCUCAACCACCAAUGCAUCCCACCACAUGAUGACGCCUGAAGAGCCUUGGUUUUUUG [C15U U33G G61U U87A U112C] ) has polymerase ribozyme fitness (log ratio) equal to -4.85

# polymerase ribozyme fitness (log ratio) (variant: GACCAAUCUGCCCUCAGAGCCCGAGAAAAUCUUCGGAUGCAGAGGAGGCAGGCUUCGGUGGCACGAUAGCGCCAACGUCCUCAACCUCCAAGGCAUCCCACCACAUGAUGAUGCCUGAAGAGCAUUAGUUUUUUG [U21C C28A G63A U92G C124A G127A] ) is -7.31
